Molecular target: M3 (Homo sapiens, UniProt P20309)
Sequence (P20309 whole entry): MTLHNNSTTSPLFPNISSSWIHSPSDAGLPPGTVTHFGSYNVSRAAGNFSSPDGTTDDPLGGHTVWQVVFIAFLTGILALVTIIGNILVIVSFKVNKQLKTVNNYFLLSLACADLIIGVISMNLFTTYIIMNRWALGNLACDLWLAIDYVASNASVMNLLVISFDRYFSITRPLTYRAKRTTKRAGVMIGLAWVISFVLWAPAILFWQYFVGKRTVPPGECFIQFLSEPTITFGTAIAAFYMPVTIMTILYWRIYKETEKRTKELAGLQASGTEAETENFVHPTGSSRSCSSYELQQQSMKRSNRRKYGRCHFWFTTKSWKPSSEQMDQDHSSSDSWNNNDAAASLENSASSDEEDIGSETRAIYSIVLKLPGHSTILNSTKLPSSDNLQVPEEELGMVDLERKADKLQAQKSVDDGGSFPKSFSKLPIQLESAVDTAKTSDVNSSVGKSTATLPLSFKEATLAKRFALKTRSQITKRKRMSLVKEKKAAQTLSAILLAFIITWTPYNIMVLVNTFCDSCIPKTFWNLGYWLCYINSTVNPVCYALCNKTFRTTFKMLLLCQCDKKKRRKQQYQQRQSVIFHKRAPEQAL
Assay: In vitro functional assay of muscarinic acetylcholine receptor activity, M3
Type: cell-based
Settings: antagonist IC50 at M3; read-out: M3 IC50
pIC50: −log10 of the molar value.
measure_name: pIC50

The reported pIC50 of the compound O=C(CCNCc1c(F)ccc2nccn12)N1CC2CCC(C1)N2c1ccc(C2CC2)cn1 was < 5.00

The reported pIC50 of the compound O=C(CCNCc1c(F)ccc2nccn12)N1CC2CCC(C1)N2c1ccncc1F was < 5.00

The reported pIC50 of the compound N#Cc1ccc(N2C3CCC2CN(C(=O)C2CC(=Cc4cccc5ncccc45)C2)C3)nc1 (centres unmarked) was 5.00 to 6.00

The reported pIC50 of the compound COc1cnc2cccc(S(=O)(=O)CCCC(=O)N3CCN(c4ncc(F)cc4C)C[C@@H]3C)c2c1 was 5.00 to 6.00

The reported pIC50 of the compound Cc1cc(F)cnc1N1CCN(C(=O)CCS(=O)(=O)c2cccc3ncccc23)[C@@H](C)C1 was < 5.00

The reported pIC50 of the compound Cc1nc2cccc(CNCCC(=O)N3CC4CCC(C3)N4c3ccc(C#N)cn3)n2n1 was < 5.00

The reported pIC50 of the compound Cc1cc(C#N)cnc1N1CCN(C(=O)CCS(=O)(=O)c2cccc3ncsc23)[C@@H](C)C1 was 6.00 to 7.00

The reported pIC50 of the compound CC1CN(c2ccc(C#N)cn2)CC(C)N1C(=O)CCS(=O)(=O)c1cccc2ncsc12 (centres unmarked) was < 5.00

* * *

Molecular target: human M1 receptor (Homo sapiens, UniProt P11229)
Sequence (P11229 whole entry): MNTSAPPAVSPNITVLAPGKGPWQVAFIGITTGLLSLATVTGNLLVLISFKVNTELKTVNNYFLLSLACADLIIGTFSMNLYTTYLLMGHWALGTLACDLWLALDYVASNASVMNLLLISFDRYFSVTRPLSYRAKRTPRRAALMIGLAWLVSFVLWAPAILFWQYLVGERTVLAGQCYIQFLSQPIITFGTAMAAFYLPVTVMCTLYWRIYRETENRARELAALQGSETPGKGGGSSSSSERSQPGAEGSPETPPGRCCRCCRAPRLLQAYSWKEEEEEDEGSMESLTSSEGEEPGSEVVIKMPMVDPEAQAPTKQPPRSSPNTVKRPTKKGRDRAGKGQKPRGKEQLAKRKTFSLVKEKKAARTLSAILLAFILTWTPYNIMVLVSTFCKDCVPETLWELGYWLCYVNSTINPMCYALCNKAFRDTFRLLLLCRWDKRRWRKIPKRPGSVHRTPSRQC
Test: In vitro functional assay of muscarinic acetylcholine receptor activity (aequorin calcium flux, antagonist mode vs EC80 acetylcholine), M1
Assay type: cell-based
pIC50: −log10 of the molar value.
measure_name: pIC50

The reported pIC50 of the compound N#Cc1ccc(N2C3CCC2CN(C(=O)COCCc2cccn4ncnc24)C3)nc1 was > 7.00

The reported pIC50 of the compound N#Cc1ccc(N2C3COCC2CN(C(=O)CCS(=O)(=O)c2cccc4ncsc24)C3)nc1 was > 7.00

The reported pIC50 of the compound N#Cc1ccc(N2C3CCC2CN(C(=O)CCOCc2cccc4nccn24)C3)nc1 was > 7.00

The reported pIC50 of the compound O=C(CCNCc1c(F)ccc2nccn12)N1CC2CCC(C1)N2c1ccc(Cl)cn1 was > 7.00

* * *

Molecular target: M3 (Homo sapiens, UniProt P20309)
Experiment: In vitro functional assay of muscarinic acetylcholine receptor activity, M3
Format: cell-based
Details: antagonist IC50 at M3; read-out: M3 IC50
measure_name: IC50

Record Cc1cc(C#N)ncc1N1CCN(C(=O)CCS(=O)(=O)c2cccc3nccn23)[C@@H](C)C1 [Example 144] ; system M3 (Homo sapiens, UniProt P20309); IC50 = > 10 µM

Record N#Cc1ccc(C2CC3CCC2CN3C(=O)CCS(=O)(=O)c2cccc3ncsc23)nc1 (stereo not drawn) [Example 28] ; system M3 (Homo sapiens, UniProt P20309); IC50 = 1 to 10 µM

Record O=C(COCc1cccc2ncccc12)N1C[C@H]2CC[C@@H](C1)N2c1ccc(F)cn1 [Example 1] ; system M3 (Homo sapiens, UniProt P20309); IC50 = > 10 µM

Record CC1CN(C(=O)CCS(=O)(=O)c2cccc3ncsc23)CC(C)N1c1ccc(C#N)cn1 (stereo not drawn) [Example 128] ; system M3 (Homo sapiens, UniProt P20309); IC50 = 1 to 10 µM

Record N#Cc1ccc(N2CCN(C(=O)CCS(=O)(=O)c3cccc4ncsc34)CC2)nc1 [Example 111] ; system M3 (Homo sapiens, UniProt P20309); IC50 = 1 to 10 µM

Record C[C@H]1CN(c2ncc(F)cc2F)CCN1C(=O)CCCc1cccc2ncccc12 [Example 91] ; system M3 (Homo sapiens, UniProt P20309); IC50 = 1 to 10 µM

Record Cc1cc(Cl)cnc1N1CCN(C(=O)CCNCc2cccc3nccn23)[C@H](C)C1 [Example 123] ; system M3 (Homo sapiens, UniProt P20309); IC50 = 1 to 10 µM

Record Cc1cc(F)cnc1N1CCN(C(=O)CCCc2cccc3ncccc23)[C@H](C)C1 [Example 66] ; system M3 (Homo sapiens, UniProt P20309); IC50 = 0.1 to 1 µM

Record Cc1cc(F)cnc1N1CCN(C(=O)CCCc2cccc3ncccc23)[C@@H](C)C1 [Example 6] ; system M3 (Homo sapiens, UniProt P20309); IC50 = 1 to 10 µM

Record O=C(CCCc1cccc2ncccc12)N1C[C@H]2C[C@@H]1CN2c1ccc(F)cn1 (racemic) [Example 54] ; system M3 (Homo sapiens, UniProt P20309); IC50 = > 10 µM

Record N#Cc1ccc(N2C3CCC2CN(C(=O)CCOCc2cccc4ncnn24)C3)nc1 [Example 39] ; system M3 (Homo sapiens, UniProt P20309); IC50 = 1 to 10 µM

Record Cc1cc(C#N)cnc1N1CC2CCC(C1)N2C(=O)CCNCc1cccc2ncsc12 [Example 161] ; system M3 (Homo sapiens, UniProt P20309); IC50 = > 10 µM

The measurements presented in this section are drawn from patent US11512090B2.
